- tested_system: Alpha-bungarotoxin (Bungarus multicinctus)
- assay_name: alpha-bungarotoxin binders on microarray, profiling panel, artefact control for SMM control protein annotation, biochemical, small-molecule microarray, Alexa647 label, 635/667 nm fluorescence (AID 1117)
- reported_conditions: alpha-BTX-A647 binding fluorescence, higher = more signal
Records here are stratified by composite z-score; strata: class 1: < 0.3; class 2: ≥ 0.3 and < 0.9; class 3: ≥ 0.9

Query :: Kindly state the category for this compound: O=C(NN=C1C[C@@H](O)[C@@H](O)[C@@H]2[C@@H]3C(=O)N(c4cccc(Oc5ccccc5)c4)C(=O)[C@@H]3CC[C@H]12)OCc1ccccc1
Result :: class 3

Query :: Kindly state the category for this compound: C=CCN1C(=O)[C@]2(O[C@H](CCn3cc(CCO)nn3)[C@@H]([Si](C)(C)c3ccc(OC)cc3)[C@@H]2C)c2cc(N3CCOC3=O)ccc21
Result :: class 2

Query :: Kindly state the category for this compound: CO[C@H]1COC(=O)[C@H](C)COC(=O)CC=C[C@@H](C)[C@H](OC)COC(=O)CC=C[C@@H]1C
Result :: class 1

Query :: Kindly state the category for this compound: CCOC(=O)CCN1C(=O)[C@H]2[C@H]3[C@H](O)[C@H](O)CC(=NNC(=O)OCc4ccc(OC)cc4)[C@@H]3CC[C@H]2C1=O
Result :: class 3

Query :: Kindly state the category for this compound: COc1ccc(-c2nc3c(c4c2C[C@H](C)OC4)CN(CCC(C)C)CC3)cc1
Result :: class 2

Query :: Kindly state the category for this compound: COC(=O)[C@H](C)NC(=O)CCC1CC(OC(=O)NCCc2ccc(F)cc2)CC2(CCCC(COC(=O)NCC(c3ccccc3)c3ccccc3)O2)O1 (some centres undefined)
Result :: class 2

Query :: Kindly state the category for this compound: CCCNC(=O)OC[C@H]1O[C@H](CCON=CC[C@@H]2C=C[C@H](OC(C)=O)[C@@H](COC(C)=O)O2)C=C[C@@H]1Oc1ccc(OC)cc1
Result :: class 3

Query :: Kindly state the category for this compound: CC[C@@H](c1ccccc1)n1c(=O)n2n(c1=O)[C@H]1[C@H](O)[C@@H]3O[C@@H]3C(=NOCC(C)C)[C@H]1CC2
Result :: class 1

Query :: Kindly state the category for this compound: CCN(CC)c1ccc(N2CC=CC34O[C@@H]5/C=C\CCC(C)OC(=O)C5[C@H]3C(=O)N(CCCO)[C@@H]4C2=O)cc1 (some centres undefined)
Result :: class 1

Query :: Kindly state the category for this compound: Cn1c(=O)n2n(c1=O)[C@H]1[C@H](O)[C@@H]3O[C@@H]3C(=NOC[C@@H](O)COCc3ccco3)[C@H]1CC2
Result :: class 2

Query :: Kindly state the category for this compound: COc1ccc(O[C@H]2C=C[C@@H](c3ccccc3)O[C@@H]2COC(=O)CCC(C)=NO[C@@H](C)c2cc(-c3c(C)cc(C)cc3C)no2)cc1
Result :: class 1

Query :: Kindly state the category for this compound: COCCOC(=O)N1C(=O)[C@@]2(c3cc(C#CC4(O)CCCCCC4)ccc31)[C@H](C(=O)N1CCN(c3ncccn3)CC1)[C@H]1C(=O)O[C@H](c3ccccc3)[C@H](c3ccccc3)N1[C@@H]2c1ccc(OCCO)cc1
Result :: class 3

Query :: Kindly state the category for this compound: Cc1cc2c(nc1C)CCCN2CC(C)ON=C1[C@H]2CCn3c(=O)n(-c4ccccc4)c(=O)n3[C@H]2[C@H](O)[C@@H]2O[C@H]12 (some centres undefined)
Result :: class 2

###

- Tested on: Fibrinogen (Alexa647-labelled)
- assay_name: fibrinogen binders on compound microarrays, profiling panel, artefact control for SMM control-protein annotation, biochemical, small-molecule microarray, 635/667 nm fluorescence (AID 1131);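 also: z-score merges 667 nm fluorescence with per-spot signal-to-noise over triplicate slides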
- reported_conditions: fibrinogen-A647 binding fluorescence, higher = more signal
Would you kindly list composite z-score for each of these compounds?
Give only the figure.

Query :: Recorded composite z-score of C[C@@H](c1ccccc1)N1C(=O)[C@H]2[C@H]3[C@H](O)C=CC(=O)[C@@H]3CC[C@H]2C1=O , please.
Result :: 0.392

Query :: Recorded composite z-score of COCCOC(=O)N1C(=O)[C@@]2(c3cc(C#CCNC(N)=O)ccc31)[C@H](c1ccc(O)cc1)N1[C@H](c3ccccc3)[C@H](c3ccccc3)OC(=O)[C@H]1[C@@H]2C(=O)N1CCCCCCC1 , please.
Result :: 0.606

Query :: Recorded composite z-score of COc1ccc(O[C@H]2C=C[C@@H](c3ccccc3)O[C@@H]2COC(=O)CCC(C)=NOCC[C@@H]2C=C[C@H](OC(C)=O)[C@@H](COC(C)=O)O2)cc1 , please.
Result :: 0.351

Query :: Recorded composite z-score of CO[C@@H]1COC(=O)CC=C[C@@H](C)COC(=O)[C@H](COCc2ccccc2)NC(=O)CC=C[C@H]1C , please.
Result :: -1.55

Query :: Recorded composite z-score of C[C@H]1CC[C@@H](C(=O)O)N[C@@H]1c1ccc(C#CCN(C)C)cc1 , please.
Result :: 0.54

Query :: Recorded composite z-score of CCOC(=O)CCN1C(=O)[C@H]2[C@H]3[C@H](O)[C@H](O)CC(=O)[C@H]3CC[C@H]2C1=O , please.
Result :: 0.29

Query :: Recorded composite z-score of O=C1O[C@@H](c2ccccc2)[C@@H](c2ccccc2)N2[C@@H](c3ccc(OCCO)cc3)[C@]3(C(=O)Nc4ccccc43)[C@@H](C(=O)N3CCN(c4ncccn4)CC3)[C@H]12 , please.
Result :: 0.489

Query :: Recorded composite z-score of CCOc1ccc(N2C(=O)/C(=C/C=C/c3ccccc3OC)S(=O)(=O)C2c2cccc([N+](=O)[O-])c2)cc1 (stereo not given) , please.
Result :: 0.441

Query :: Recorded composite z-score of CC(C)=C1C(=O)C(c2ccccc2)=C2CN3C(=O)N(CCc4ccccc4)C(=O)[C@]3(Cc3ccc(F)cc3)[C@H]21 , please.
Result :: -1.43

Query :: Recorded composite z-score of CC(C)=NOCc1ccc(-c2cc(-c3ccccc3)no2)cc1 , please.
Result :: 0.108

Query :: Recorded composite z-score of CC(CCN1CCc2nc(-c3ccccc3)c(-c3ccccc3)cc2C1)=NO[C@H](C)c1cn([C@@H]2COC[C@H]2O)nn1 , please.
Result :: 0.717

Query :: Recorded composite z-score of O=C1C[C@@H](O)[C@@H](O)[C@@H]2[C@@H]3C(=O)N(c4ccc(F)cc4F)C(=O)[C@@H]3CC[C@@H]12 , please.
Result :: -0.518

Query :: Recorded composite z-score of COC(=O)C1=C(C)[C@@H](O)[C@@H](C)[C@H](c2c(OC)c(OC)c(C)c(OC)c2OC)O1 , please.
Result :: -1.27

Query :: Recorded composite z-score of Cc1ccc(S[C@]2(C(=O)O)CC(=O)N(Cc3ccccc3)[C@@H]2c2ccc(CO)cc2I)cc1 , please.
Result :: 0.186

Query :: Recorded composite z-score of NCCCCCNC(=O)[C@@H]1C[C@@H]2C(=O)N3CCC[C@H]3C(=O)N2[C@@H]1c1cccc(OCCO)c1 , please.
Result :: 0.974

###

- tested_system: Concanavalin-A (Canavalia ensiformis) (UniProt P02866)
- Sequence (P02866 whole entry, looked up): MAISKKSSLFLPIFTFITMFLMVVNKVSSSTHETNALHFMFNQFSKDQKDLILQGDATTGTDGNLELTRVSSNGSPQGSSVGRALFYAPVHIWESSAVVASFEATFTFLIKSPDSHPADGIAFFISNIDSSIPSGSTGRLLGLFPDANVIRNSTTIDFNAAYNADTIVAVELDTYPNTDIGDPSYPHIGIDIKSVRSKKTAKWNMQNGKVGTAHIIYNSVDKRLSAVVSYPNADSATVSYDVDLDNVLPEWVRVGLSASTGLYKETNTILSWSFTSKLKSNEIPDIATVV
- assay_name: ConA small-molecule binders, primary screen, artefact control for SMM control protein annotation, biochemical, small-molecule microarray, Alexa647 label, 635 nm (AID 1127);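 also: z combines 667 nm emission intensity with signal-to-noise across three replicate slides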
- reported_conditions: ConA-A647 binding fluorescence, higher = more signal
measured_attribute: composite z-score
Give only the figure.

Query :: Recorded composite z-score of C#C[C@@H]1Oc2ccccc2S(=O)(=O)N2CCC[C@H]12 , please.
Result :: -0.512

Query :: Recorded composite z-score of C=CC[C@@H]1C=C[C@H](ON=Cc2ccc(C(=O)N3[C@H](c4ccc(C)cc4)[C@@H](C)CC[C@H]3C(=O)OC)cc2)[C@@H](CO)O1 , please.
Result :: -0.404

Query :: Recorded composite z-score of O=C1[C@H]2[C@H]3[C@H](O)[C@H](O)CC(=NOCc4ccccc4)[C@H]3CC[C@H]2C(=O)N1c1cccc(Oc2ccccc2)c1 , please.
Result :: 0.707

Query :: Recorded composite z-score of CO[C@@H]1COC(=O)CC=C[C@@H](C)[C@@H]2C=C[C@H](O)[C@@H](COC(=O)[C@H](C)NC(=O)CC=C[C@H]1C)O2 , please.
Result :: -0.016

Query :: Recorded composite z-score of CO[C@H]1COC(=O)[C@H](C)NC(=O)[C@@H](C)COC(=O)CC=C[C@@H]1C , please.
Result :: 0.303

Query :: Recorded composite z-score of CN1C(=O)C2C=CC(C(O)c3ccc(Br)cc3)N(N(c3ccccc3)c3ccccc3)C2C1=O (stereo not drawn) , please.
Result :: 0.951

Query :: Recorded composite z-score of COc1ccc(OC[C@H]2Cc3c(-c4ccccc4)nc4c(c3CO2)CN(CCOc2ccccc2)CC4)cc1 , please.
Result :: 1.08

Query :: Recorded composite z-score of COC(=O)CC=C[C@@H](C)[C@@H](C=NO[C@@H](C)c1cc(-c2c(C)cc(C)cc2C)no1)OC , please.
Result :: -0.627
